procedure_details: Acute toxicity (LD50) in the mouse
measurement_setup: in vivo, ip, read-out: LD50 i.p.
measured_endpoint: LD50 (mg/kg)
The reply should be a number in mg/kg, with the unit left off.

Requested field: LD50. Item: NCCNC(=S)Nc1cccc(Cl)c1Cl
450

====

Record form. Attribute: LD50. Fill in for each entry.
procedure_details: Acute toxicity (LD50) in the mouse
measurement_setup: in vivo, po, read-out: LD50 p.o.

Requested field: LD50. Item: NCCNC(=S)Nc1c(Cl)cccc1Cl
750 to 775 mg/kg

Requested field: LD50. Item: NCCNC(=S)Nc1cccc(Cl)c1Cl
> 1000 mg/kg
